# measured on: Aryl hydrocarbon receptor (Homo sapiens) (UniProt P35869)
# Sequence (P35869 whole entry, looked up): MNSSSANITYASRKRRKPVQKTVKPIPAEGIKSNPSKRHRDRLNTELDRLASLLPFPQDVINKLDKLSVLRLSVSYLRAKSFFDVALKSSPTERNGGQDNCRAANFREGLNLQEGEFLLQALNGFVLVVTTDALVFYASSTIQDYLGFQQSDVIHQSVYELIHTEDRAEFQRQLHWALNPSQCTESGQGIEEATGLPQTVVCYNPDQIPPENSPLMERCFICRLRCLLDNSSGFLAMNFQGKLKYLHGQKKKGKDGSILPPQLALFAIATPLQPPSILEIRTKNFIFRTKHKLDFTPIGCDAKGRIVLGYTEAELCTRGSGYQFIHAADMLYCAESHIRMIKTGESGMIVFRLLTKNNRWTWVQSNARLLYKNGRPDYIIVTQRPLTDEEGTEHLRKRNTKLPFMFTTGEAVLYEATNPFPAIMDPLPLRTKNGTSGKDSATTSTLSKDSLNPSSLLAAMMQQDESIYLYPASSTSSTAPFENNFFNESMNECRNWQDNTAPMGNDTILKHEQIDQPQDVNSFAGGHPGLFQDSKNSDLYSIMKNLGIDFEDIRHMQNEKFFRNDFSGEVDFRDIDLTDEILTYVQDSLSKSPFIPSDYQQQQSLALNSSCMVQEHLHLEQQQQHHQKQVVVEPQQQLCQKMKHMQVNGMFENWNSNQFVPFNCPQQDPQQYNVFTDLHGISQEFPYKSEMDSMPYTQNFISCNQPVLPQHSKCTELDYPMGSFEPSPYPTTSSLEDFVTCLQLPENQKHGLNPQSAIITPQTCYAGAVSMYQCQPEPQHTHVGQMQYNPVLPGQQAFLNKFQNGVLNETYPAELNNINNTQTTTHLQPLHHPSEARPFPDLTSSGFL
# experimental protocol: AHR activators, primary screen, cell-based, luminescence, luciferase reporter, human (AID 2796);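 further: 0% = vehicle wells and 100% = reference agonist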
# condition: AHR-responsive luciferase reporter cells, at 5 µM, hits give high values
Among all 320,000 compounds or so, about 8,000 (2.5%) were called active. The sample as a whole holds a higher share of actives than the screen did.
reported endpoint: activation (%)
Your answer is read as %, so omit the unit and give the number.

Look over these answered cases.
compound	unit spec	observed result
COc1ccccc1-c1nnc(NC(=O)c2ccc3ncsc3c2)o1	%	48.6
COc1ccccc1-c1nnc(NC(=O)c2cccc(N3C(=O)CCC3=O)c2)o1	%	33.9
CC(Oc1ccc(-c2ccccc2)c(F)c1)c1ccn(S(=O)(=O)c2cccc3ccccc23)n1 (stereo unspecified)	%	0.53
COc1ccccc1NC(=O)Nc1nc(CC(=O)Nc2ccccc2F)cs1	%	25
Cc1sc(NC(=O)c2ccc3ncsc3c2)c(C(N)=O)c1C	%	5.88

Find activation (Aryl hydrocarbon receptor (Homo sapiens) (UniProt P35869)) for the entry O=C(Nc1nnc(COc2ccccc2)s1)Nc1ccccc1F
10.9
